The measurements presented in this section are drawn from ChEMBL document CHEMBL2074205.

target: UniProt P08183; experiment: TP_TRANSPORTER: inhibition of Daunorubicin transepithelial transport (basal to apical), (-)-efonidipine (Daunorubicin: 0.035 uM) in MDR1-expressing LLC-PK1 cells; type: functional, cell-based
Sequence (P08183 whole entry): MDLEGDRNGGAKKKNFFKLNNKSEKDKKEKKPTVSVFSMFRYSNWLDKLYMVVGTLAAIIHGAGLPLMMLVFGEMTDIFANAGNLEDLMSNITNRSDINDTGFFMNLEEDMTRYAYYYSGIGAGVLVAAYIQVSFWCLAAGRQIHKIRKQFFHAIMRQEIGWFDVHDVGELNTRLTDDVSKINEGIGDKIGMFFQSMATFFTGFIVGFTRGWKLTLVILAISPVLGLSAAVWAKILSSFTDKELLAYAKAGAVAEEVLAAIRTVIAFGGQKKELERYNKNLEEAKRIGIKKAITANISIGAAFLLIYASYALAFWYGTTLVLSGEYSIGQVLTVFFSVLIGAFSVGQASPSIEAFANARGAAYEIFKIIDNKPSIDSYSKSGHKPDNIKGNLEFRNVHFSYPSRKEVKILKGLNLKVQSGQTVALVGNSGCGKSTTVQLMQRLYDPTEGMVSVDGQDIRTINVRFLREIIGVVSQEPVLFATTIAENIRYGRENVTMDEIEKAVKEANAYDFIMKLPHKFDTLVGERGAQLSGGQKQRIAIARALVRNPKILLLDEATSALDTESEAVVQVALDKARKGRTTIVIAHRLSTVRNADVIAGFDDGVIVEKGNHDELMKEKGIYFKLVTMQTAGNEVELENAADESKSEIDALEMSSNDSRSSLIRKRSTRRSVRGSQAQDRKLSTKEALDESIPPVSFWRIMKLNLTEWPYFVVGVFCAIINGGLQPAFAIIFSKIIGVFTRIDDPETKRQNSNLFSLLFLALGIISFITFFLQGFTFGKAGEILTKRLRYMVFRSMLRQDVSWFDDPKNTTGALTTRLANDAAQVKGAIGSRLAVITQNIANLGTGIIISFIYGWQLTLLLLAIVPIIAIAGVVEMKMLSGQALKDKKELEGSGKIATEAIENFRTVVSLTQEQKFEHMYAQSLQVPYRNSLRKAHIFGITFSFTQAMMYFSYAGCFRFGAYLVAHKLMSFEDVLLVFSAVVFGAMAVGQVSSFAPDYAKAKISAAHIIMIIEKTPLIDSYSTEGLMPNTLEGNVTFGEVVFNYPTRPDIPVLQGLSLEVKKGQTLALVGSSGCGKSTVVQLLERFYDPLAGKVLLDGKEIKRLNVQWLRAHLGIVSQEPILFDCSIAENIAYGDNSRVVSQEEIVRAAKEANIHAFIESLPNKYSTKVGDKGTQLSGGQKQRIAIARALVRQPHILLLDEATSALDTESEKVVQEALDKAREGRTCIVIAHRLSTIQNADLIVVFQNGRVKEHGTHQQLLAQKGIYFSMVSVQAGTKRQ
pIC50: −log10 of the molar value.

[
  {
    "compound": "CC1=C(C(=O)OCCN(Cc2ccccc2)c2ccccc2)C(c2cccc([N+](=O)[O-])c2)C(P2(=O)OCC(C)(C)CO2)=C(C)N1 (stereo unspecified) [EFONIDIPINE]",
    "assaySystem": "UniProt P08183",
    "pIC50": 4.76
  }
]

###

Known pIC50 of a selection of molecules
biological target: UniProt:P08183; assay: TP_TRANSPORTER: inhibition of Daunorubicin transepithelial transport (basal to apical) (Daunorubicin: 0.035 uM) in MDR1-expressing LLC-PK1 cells; type: functional, cell-based
pIC50: −log10 of the molar value.

[
  {
    "molecule": "COC(=O)C1=C(C)NC(C)=C(C(=O)OCCN2CCN(C(c3ccccc3)c3ccccc3)CC2)C1c1cccc([N+](=O)[O-])c1 (centres undefined) [MANIDIPINE 6300]",
    "pIC50": 5.34
  },
  {
    "molecule": "COC(=O)C1=C(C)NC(C)=C(C(=O)O[C@H]2CCN(Cc3ccccc3)C2)[C@H]1c1cccc([N+](=O)[O-])c1 [BARNIDIPINE]",
    "pIC50": 5.07
  },
  {
    "molecule": "CCOC(=O)C1=C(COCCN)NC(C)=C(C(=O)OC)C1c1ccccc1Cl (centres undefined) [AMLODIPINE]",
    "pIC50": 4.66
  },
  {
    "molecule": "COC(=O)C1=C(C)NC(C)=C(C(=O)O[C@@H]2CCCN(Cc3ccccc3)C2)C1c1cccc([N+](=O)[O-])c1 (some centres undefined)",
    "pIC50": 5.02
  }
]
